assay: Tmax in HIV1 infected pregnant woman during postpartum period at 800 mg three times/day; assay type: ADME, organism-based; details: female, human, in vivo
reported.property: Tmax (h)
Answers are plain numbers, in h.

Recorded Tmax for CC(C)(C)NC(=O)[C@@H]1CN(Cc2cccnc2)CCN1C[C@@H](O)C[C@@H](Cc1ccccc1)C(=O)N[C@H]1c2ccccc2C[C@H]1O.O [INDINAVIR] , please? 1.88

* * *

test: Cmax in HIV1 infected pregnant woman during antepartum period at 800 mg three times/day; assay type: ADME, organism-based; parameters: dose 800 mg; conditions: female, human, in vivo
reported.property: Cmax (ng/mL)
Answers are plain numbers, in ng/mL.

Entry CC(C)(C)NC(=O)[C@@H]1CN(Cc2cccnc2)CCN1C[C@@H](O)C[C@@H](Cc1ccccc1)C(=O)N[C@H]1c2ccccc2C[C@H]1O.O [INDINAVIR] has what Cmax? 4370
